System: RPMI-8226 leukemia
assay_info: NCI tumour cell line growth inhibition, 48 h; in the data active = GI50 below about 0.43 µM; inactive = the rest
Classes used: yes = active, no = inactive

compound	qualitative_label
O=C1CCC/C=C\C[C@H]2C=CC(=O)/C2=C/C[C@H](C/C=C\CC(F)(F)F)O1	yes
CSc1ccccc1C#C/C=C\C#Cc1ccccc1N	no
CCOC(=O)c1c(-c2ccc(OC)cc2)c(C#N)c2c(C#N)c(N)nn2c1N	no
CC1(C)N=C(N)N=C(N)N1c1ccc(CCCCc2ccc(Cl)c(S(=O)(=O)F)c2)c(Cl)c1	no
COc1ccc(-c2cc(/C=C/C(=O)c3ccc(OC)c(OC)c3)[nH]n2)cc1	yes
COc1cc(/C=C/C(=O)c2cccc(-n3cc(-c4ccc(Cl)cc4)[nH]c3=O)c2)ccc1O	no
Nc1c(C(=O)c2ccccc2)cnn1-c1ccc(F)cc1	no
CC1(Br)Cc2ccccc2C1=O (configuration not stated)	no
Cn1c(Nc2ccc(C(F)(F)F)cc2)nc2cc(Oc3ccnc(-c4ncc(C(F)(F)F)[nH]4)c3)ccc21	no
Cc1ccc2c(C3C(C#N)=C(N)Oc4cc5ccccc5cc43)cc(=O)oc2c1 (configuration not stated)	no
CN1CC[C@@H](c2c(O)cc(O)c3c(=O)cc(-c4ccc(C(F)(F)F)cc4Cl)oc23)[C@@H]1CO	no
COc1cccc2c1C(=O)c1c(O)c3c(c(O)c1C2=O)C[C@@](O)(/C(C)=N/NC(=O)c1ccc(Cl)cc1)C[C@@H]3OC1CC(N)C(O)C(C)O1 (some centres not stated)	yes

* * *

System: EKVX NSCLC
assay_info: NCI tumour cell line growth inhibition, 48 h
assay_metric: TGI

> print(dat)
                                   compound  target.of.assay  assay.metric   reading
1  COCOC1C=CCCCC2=CC(C)=C(CC1)O2 (configuration not stated)       EKVX NSCLC           TGI  > 100 µM
2        Cn1c2ccccc2c2ncc3[nH]c4ccccc4c3c21       EKVX NSCLC           TGI   65.6 µM
3            [N-]=[N+]=CC(=O)OC1Cc2ccccc2C1       EKVX NSCLC           TGI  > 100 µM
4         O=C(NNC(=O)c1ccccc1O)c1cccc(Br)c1       EKVX NSCLC           TGI  > 100 µM
5  CNCCCn1c2ccccc2c2c3c(c(-c4ccsc4)cc21)C(=O)NC3=O       EKVX NSCLC           TGI   3.75 µM
6             CN(C)c1ccc(N=Nc2ccccn2)c(O)c1       EKVX NSCLC           TGI   14.4 µM
7      CCOC(=O)NNC(=O)NCCCCNC(=O)NNC(=O)OCC       EKVX NSCLC           TGI  > 100 µM

* * *

Test system: SK-MEL-28 melanoma
assay_info: NCI tumour cell line growth inhibition, 48 h
assay_metric: TGI

> print(dat)
                                   compound   reading
1      Cc1c2cccc-2c(OCCO)cc2c3ccccc3n(C)c12   21.4 µM
2  CCOC(=O)c1sc2c(c1OC(=O)c1ccc(OC)cc1)c(=O)n(-c1ccccc1)c(=S)n2-c1ccccc1  > 100 µM
3  Cc1ccc(S(=O)OCc2c(C)c(C)c(COS(=O)c3ccc(C)cc3)c(C)c2C)cc1 (stereo not given)  > 100 µM
4  COc1ccc2c(C(=O)c3cn(CCN4CCOCC4)c4ccccc34)cccc2c1  > 100 µM
5  CC(Oc1ccc(OCC2CCCCC2)cc1)C(=O)OCC(=O)c1ccc(-c2ccccc2)cc1 (stereo not given)  > 100 µM

* * *

Catalogue of TGI values
Tested on: UACC-257 melanoma
assay_info: NCI tumour cell line growth inhibition, 48 h
assay_metric: TGI (µM)

> print(dat)
                                    molecule  unit.text  sign.qualifier  reading
 1    CCc1nc(N)nc(N)c1-c1ccc([N+](C)(C)C)cc1         µM               >      100
 2         CN(C)CCSc1cc(-c2ccccc2)c2ccccc2n1         µM               =     24.8
 3             CN(C)c1ccc(N=Nc2ccccn2)c(O)c1         µM               =     9.04
 4  Nc1n[nH]c(=O)c2c1c(I)cn2C1OC(CO)C(O)C1O (centres undefined)         µM               =     13.4
 5  C[C@@]12CCC[C@@](C)(C(=O)O)C1CC[C@]13CC(=O)[C@](CO)(C1)[C@@H](O)CC32 (some centres undefined)         µM               >      100
 6    COc1ccc(/C(Cl)=C(\C=O)c2ccc(OC)cc2)cc1         µM               >      100
 7       Cc1nc2ccc(F)cc2c2c1CCN2c1ccc(Cl)cc1         µM               =     13.8
 8      Cc1cc2cc3c(=O)[nH]c(=O)[nH]c3nc2cc1C         µM               >      100
 9  CC(C)=CC1CC(=[N+]=[N-])C(=O)C1(C)C (centres undefined)         µM               >      100
10  C=CCC1(CN(C)C)CC/C(=C\c2ccc(Cl)cc2)C1=O (centres undefined)         µM               =     54.1
11     Cc1cc(/N=C/c2ccc(F)cc2)n(-c2ccccc2)n1         µM               >      100
12  CC(C)=CCc1cc(O)cc2c1OC(C=C(C)C)C1=C2C(=O)C2=C(C1=O)S(=O)(=O)CCN2 (centres undefined)         µM               =     4.97
13  Nc1ccn([C@H]2CO[C@@H](CO)[C@@H]2O)c(=O)n1         µM               >      100
14              O=C1NI(C#Cc2ccccc2)c2ccccc21         µM               >      100
15  COc1ccc(C2=C3SC=c4ccccc4=C3ON=C2c2ccccc2)cc1         µM               >      100
16                  O=[N+]([O-])c1ccc(CI)cc1         µM               =     15.5
17         CCN(Cc1ccc(F)cc1)c1ccc(CO)c(Br)c1         µM               =    0.185
18  O=S(=O)(Nc1ccc(Cl)cc1Cl)c1ccc(-c2cnc(C3CC3)o2)cc1         µM               =     60.5
19         C#Cc1nc(Nc2cc(C)[nH]n2)c2ccccc2n1         µM               =    0.631
20              CC(=O)N(C)CCc1c[nH]c2ccccc12         µM               >      100
21            [N-]=[N+]=CC(=O)OC1Cc2ccccc2C1         µM               >      100
22  Cn1c2ccccc2c(=O)c2cccc(C(=O)NC(CS)C(=O)O)c21 (centres undefined)         µM               >      100
23  CC(C)(C)[Si](C)(C)OC1C(=O)C[C@H]2CCCC[C@@H]12 (some centres undefined)         µM               >      100
24   COc1ccc(/C=C(\C(C)=O)C(=O)Nc2ccccc2)cc1         µM               >      100

* * *

Tested on: OVCAR-8 ovarian
assay_info: NCI tumour cell line growth inhibition, 48 h
Catalogue of TGI values
assay_metric: TGI

> print(dat)
                                    compound  target.of.assay  assay.metric   reading
 1        O=c1nc(N2CCNCC2)oc2cc(Cl)oc(=O)c12  OVCAR-8 ovarian           TGI   5.67 µM
 2  Cn1c2ccccc2c(=O)c2cccc(C(=O)NC(CS)C(=O)O)c21 (stereo unspecified)  OVCAR-8 ovarian           TGI  > 100 µM
 3             CN(C)c1ccc(N=Nc2ccccn2)c(O)c1  OVCAR-8 ovarian           TGI  > 100 µM
 4   Nc1ccccc1N=Cc1cc2cc([N+](=O)[O-])ccc2s1  OVCAR-8 ovarian           TGI   45.7 µM
 5  Cc1ccc(Nc2oc(-c3ccccc3)nc2[P+](c2ccccc2)(c2ccccc2)c2ccccc2)cc1  OVCAR-8 ovarian           TGI   3.34 µM
 6  CC1CN=C(N(C(=O)Nc2ccccc2)c2ccc(Cl)c(Cl)c2)S1 (stereo unspecified)  OVCAR-8 ovarian           TGI  > 100 µM
 7  C[C@H]1CN[C@@H]2[C@@H](C)[C@H]3[C@@H](C[C@H]4[C@@H]5CC[C@H]6C[C@@H](N)CC[C@]6(C)[C@H]5CC[C@]34C)O[C@@]2(O)C1  OVCAR-8 ovarian           TGI   4.78 µM
 8  CS(=O)(=O)c1ccc(-c2cc(-c3ccc(S(C)(=O)=O)cc3)[n+](-c3cc(-c4ccccc4)c([O-])c(-c4ccccc4)c3)c(-c3ccc(S(C)(=O)=O)cc3)c2)cc1  OVCAR-8 ovarian           TGI  > 100 µM
 9  COc1cccc(C2CC23C(=O)NC(=O)NC3=O)c1 (stereo unspecified)  OVCAR-8 ovarian           TGI  > 100 µM
10  COC(=O)C(C(=O)Cc1ccccc1[N+](=O)[O-])C(=O)OC  OVCAR-8 ovarian           TGI  > 100 µM
11   COc1ccc(/C=C(\C(C)=O)C(=O)Nc2ccccc2)cc1  OVCAR-8 ovarian           TGI  > 100 µM
